- Test system: Human immunodeficiency virus type 1 reverse transcriptase (Human immunodeficiency virus 1), Q72547 [UNDEFINED MUTATION]
- test-summary: Ratio of K103N mutant IC50 to wild type Reverse Transcriptase IC50
measure: Ratio
Respond numerically, and do not add a unit to the figure.

Some solved cases for reference:
Cc1cc(C)c(-n2nnnc2SCC(=O)Nc2ccc(S(N)(=O)=O)cc2Cl)c(C)c1 3
NS(=O)(=O)c1ccc(NC(=O)CSc2nnnn2-c2cccc(Cl)c2Cl)c(Cl)c1 1
Cc1cc(C)c(-n2nnnc2SCC(=O)Nc2ccc(OCCCN(C)C)cc2Cl)c(C)c1 5

Attention now shifts to the item below.
In plain terms, `Cc1cc(C)c(-n2nnnc2SCC(=O)Nc2ccccc2Br)c(C)c1` has a documented Ratio of 5

###

Listed compounds paired with reported Ratio
- System: Human immunodeficiency virus type 1 reverse transcriptase (Human immunodeficiency virus 1), Q72547 [UNDEFINED MUTATION]
- test-summary: Ratio of K103N mutant IC50 to wild type Reverse Transcriptase IC50

Some solved cases for reference:
Cc1c(Cl)cccc1-n1nnnc1SCC(=O)Nc1ccccc1[N+](=O)[O-] 3
Cc1cc(C)c(-n2nnnc2SCC(=O)Nc2ccc(C(N)=O)cc2C)c(C)c1 1
Cc1cc(C)c(-n2nnnc2SCC(=O)Nc2ccccc2Cl)c(C)c1 3
Cc1cc(C)c(-n2nnnc2SCC(=O)Nc2ccccc2[N+](=O)[O-])c(C)c1 3
Cc1cccc(-n2nnnc2SCC(=O)Nc2ccccc2[N+](=O)[O-])c1C 1

In plain terms, `O=C(CSc1nnnn1-c1cc(F)ccc1Cl)Nc1ccccc1[N+](=O)[O-]` has a documented Ratio of 1

In plain terms, `Cc1cc(C)c(-n2nnnc2SCC(=O)Nc2ccc(C(N)=O)cc2Cl)c(C)c1` has a documented Ratio of 2

In plain terms, `O=C(CSc1nnnn1-c1cccc(Cl)c1Cl)Nc1ccccc1[N+](=O)[O-]` has a documented Ratio of 1

In plain terms, `Cc1cc(C)c(-n2nnnc2SCC(=O)Nc2ccc(C(=O)NCCCN(C)C)cc2Cl)c(C)c1` has a documented Ratio of 2

In plain terms, `Cc1ccc(-n2nnnc2SCC(=O)Nc2ccccc2[N+](=O)[O-])c(Br)c1` has a documented Ratio of 3

In plain terms, `O=C(CSc1nnnn1-c1ccc(Cl)c(Cl)c1)Nc1ccccc1[N+](=O)[O-]` has a documented Ratio of 2

In plain terms, `Cc1cc(C)c(-n2nnnc2SCC(=O)Nc2ccccc2I)c(C)c1` has a documented Ratio of 3

In plain terms, `Cc1cc(C)c(-n2nnnc2SCC(=O)Nc2ccc([N+](=O)[O-])cc2Cl)c(C)c1` has a documented Ratio of 5

In plain terms, `Cc1cc(C)c(-n2nnnc2SCC(=O)Nc2ccc(Cl)cc2[N+](=O)[O-])c(C)c1` has a documented Ratio of 3

In plain terms, `O=C(CSc1nnnn1-c1c(Cl)cccc1Cl)Nc1ccccc1[N+](=O)[O-]` has a documented Ratio of 1

In plain terms, `O=C(CSc1nnnn1-c1cc(Cl)ccc1Cl)Nc1ccccc1[N+](=O)[O-]` has a documented Ratio of 1

In plain terms, `Cc1cc(C)c(-n2nnnc2SCC(=O)Nc2ccc([N+](=O)[O-])cc2C)c(C)c1` has a documented Ratio of 3

In plain terms, `NS(=O)(=O)c1ccc(NC(=O)CSc2nnnn2-c2cc(Cl)ccc2Cl)c(Cl)c1` has a documented Ratio of 1

In plain terms, `Cc1ccc(Cl)cc1-n1nnnc1SCC(=O)Nc1ccccc1[N+](=O)[O-]` has a documented Ratio of 1

In plain terms, `Cc1cc(C)c(-n2nnnc2SCC(=O)Nc2ccc(S(N)(=O)=O)cc2C)c(C)c1` has a documented Ratio of 1

Origin of the recorded values: ChEMBL document CHEMBL1147711
